# Assay Summary: relative permittivity at zero frequency (dimensionless); xn = mol fraction of the nth substance listed
# Conditions Used: 308.15 K; 101 kPa; Liquid; dielectric analyzer; x1 = 0.4
Numbers after ± are expanded uncertainties.
Below, each entry is listed with its recorded relative permittivity at zero frequency.

>  <Compound>
CC(O)CNCC(C)O (stereo not given) [N-(2-hydroxypropyl)-2-hydroxy-1-propanamine] + O

>  <relative permittivity at zero frequency>
24 ± 0.48

$$$$
>  <Compound>
CN(CCO)CCO [N-methyldiethanolamine] + O

>  <relative permittivity at zero frequency>
33.09 ± 0.66

$$$$
>  <Compound>
CC(C)(N)CO [2-amino-2-methylpropan-1-ol] + O

>  <relative permittivity at zero frequency>
32.99 ± 0.66

$$$$
>  <Compound>
OCCN(CCO)CCO [triethanolamine] + O

>  <relative permittivity at zero frequency>
35.44 ± 0.71

$$$$
>  <Compound>
OCCNCCO [diethanolamine] + O

>  <relative permittivity at zero frequency>
38.06 ± 0.76

$$$$

====

# Assay Summary: relative permittivity at zero frequency (dimensionless); xn = mol fraction of the nth substance listed
# Conditions Used: 318.15 K; 101 kPa; Liquid; dielectric analyzer; x1 = 0.6
Below, each entry is listed with its recorded relative permittivity at zero frequency.
Measured Attribute: relative permittivity at zero frequency

>  <Compound>
OCCN(CCO)CCO [triethanolamine] + O

>  <Recorded Number>
29.05

$$$$
>  <Compound>
CC(C)(N)CO [2-amino-2-methylpropan-1-ol] + O

>  <Recorded Number>
25.14

$$$$
>  <Compound>
OCCNCCO [diethanolamine] + O

>  <Recorded Number>
28.07

$$$$
>  <Compound>
CN(CCO)CCO [N-methyldiethanolamine] + O

>  <Recorded Number>
24.69

$$$$
>  <Compound>
CC(O)CNCC(C)O (stereo not given) [N-(2-hydroxypropyl)-2-hydroxy-1-propanamine] + O

>  <Recorded Number>
17.53

$$$$

====

# Assay Summary: relative permittivity at zero frequency (dimensionless)
# Conditions Used: 303.15 K; 101.33 kPa; Liquid; dielectric analyzer
Lab note: cut-off is 20. Strictly less in relative permittivity at zero frequency is y. Exactly 20 or more is n.

>  <Compound>
CN(CCO)CCO

>  <Cat>
n

$$$$
>  <Compound>
OCCN(CCO)CCO

>  <Cat>
n

$$$$
>  <Compound>
OCCNCCO

>  <Cat>
n

$$$$
>  <Compound>
CC(O)CO (stereo unspecified)

>  <Cat>
n

$$$$
>  <Compound>
CC(O)CNCC(C)O (stereo unspecified) [N-(2-hydroxypropyl)-2-hydroxy-1-propanamine]

>  <Cat>
y

$$$$

====

# Assay Summary: relative permittivity at zero frequency (dimensionless); xn = mol fraction of the nth substance listed
# Conditions Used: 318.15 K; 101 kPa; Liquid; dielectric analyzer; x1 = 0.4
Lab note: cut-off is 30. Strictly less in relative permittivity at zero frequency is Y. Exactly 30 or more is N.

>  <Compound>
OCCN(CCO)CCO [triethanolamine] + O

>  <Cat>
N

$$$$
>  <Compound>
CC(O)CNCC(C)O (stereo not given) [N-(2-hydroxypropyl)-2-hydroxy-1-propanamine] + O

>  <Cat>
Y

$$$$
>  <Compound>
CC(C)(N)CO [2-amino-2-methylpropan-1-ol] + O

>  <Cat>
N

$$$$
>  <Compound>
OCCNCCO [diethanolamine] + O

>  <Cat>
N

$$$$
>  <Compound>
CN(CCO)CCO [N-methyldiethanolamine] + O

>  <Cat>
N

$$$$

====

# Assay Summary: relative permittivity at zero frequency (dimensionless); xn = mol fraction of the nth substance listed
# Conditions Used: 328.15 K; 101 kPa; Liquid; dielectric analyzer; x1 = 0.2

>  <Molecule>
OCCN(CCO)CCO [triethanolamine] + O

>  <relative permittivity at zero frequency>
44.63

$$$$
>  <Molecule>
OCCNCCO [diethanolamine] + O

>  <relative permittivity at zero frequency>
45.68

$$$$
>  <Molecule>
CC(C)(N)CO [2-amino-2-methylpropan-1-ol] + O

>  <relative permittivity at zero frequency>
43.13

$$$$
>  <Molecule>
CN(CCO)CCO [N-methyldiethanolamine] + O

>  <relative permittivity at zero frequency>
42.68

$$$$
>  <Molecule>
CC(O)CNCC(C)O (stereo not given) [N-(2-hydroxypropyl)-2-hydroxy-1-propanamine] + O

>  <relative permittivity at zero frequency>
37.16

$$$$

====

Below, each entry is listed with its recorded relative permittivity at zero frequency.
# Assay Summary: relative permittivity at zero frequency (dimensionless); xn = mol fraction of the nth substance listed
# Conditions Used: 313.15 K; 101 kPa; Liquid; dielectric analyzer; x1 = 0.8

>  <Molecule>
OCCN(CCO)CCO [triethanolamine] + O

>  <relative permittivity at zero frequency>
28.17

$$$$
>  <Molecule>
CN(CCO)CCO [N-methyldiethanolamine] + O

>  <relative permittivity at zero frequency>
22.31

$$$$
>  <Molecule>
OCCNCCO [diethanolamine] + O

>  <relative permittivity at zero frequency>
25.86

$$$$
>  <Molecule>
CC(C)(N)CO [2-amino-2-methylpropan-1-ol] + O

>  <relative permittivity at zero frequency>
22.28

$$$$
>  <Molecule>
CC(O)CNCC(C)O (stereo not given) [N-(2-hydroxypropyl)-2-hydroxy-1-propanamine] + O

>  <relative permittivity at zero frequency>
16.26

$$$$

====

# Assay Summary: relative permittivity at zero frequency (dimensionless); xn = mol fraction of the nth substance listed
# Conditions Used: 318.15 K; 101 kPa; Liquid; dielectric analyzer; x1 = 0.8
Lab note: cut-off is 20. Strictly less in relative permittivity at zero frequency is Criterion met. Exactly 20 or more is Criterion not met.

>  <Compound>
CN(CCO)CCO [N-methyldiethanolamine] + O

>  <Cat>
Criterion not met

$$$$
>  <Compound>
CC(C)(N)CO [2-amino-2-methylpropan-1-ol] + O

>  <Cat>
Criterion not met

$$$$
>  <Compound>
OCCN(CCO)CCO [triethanolamine] + O

>  <Cat>
Criterion not met

$$$$
>  <Compound>
OCCNCCO [diethanolamine] + O

>  <Cat>
Criterion not met

$$$$
>  <Compound>
CC(O)CNCC(C)O (stereo not given) [N-(2-hydroxypropyl)-2-hydroxy-1-propanamine] + O

>  <Cat>
Criterion met

$$$$

====

Below, each entry is listed with its recorded relative permittivity at zero frequency.
# Assay Summary: relative permittivity at zero frequency (dimensionless)
# Conditions Used: 313.15 K; 101.33 kPa; Liquid; dielectric analyzer
Measured Attribute: relative permittivity at zero frequency

>  <Compound>
CC(O)CO (stereo unspecified)

>  <Measured Attribute>
relative permittivity at zero frequency

>  <Recorded Number>
26.43

$$$$
>  <Compound>
CC(O)CNCC(C)O (stereo unspecified) [N-(2-hydroxypropyl)-2-hydroxy-1-propanamine]

>  <Measured Attribute>
relative permittivity at zero frequency

>  <Recorded Number>
13.62

$$$$
>  <Compound>
OCCN(CCO)CCO

>  <Measured Attribute>
relative permittivity at zero frequency

>  <Recorded Number>
26.73

$$$$
>  <Compound>
CN(CCO)CCO

>  <Measured Attribute>
relative permittivity at zero frequency

>  <Recorded Number>
20.83

$$$$
>  <Compound>
CC(C)(N)CO

>  <Measured Attribute>
relative permittivity at zero frequency

>  <Recorded Number>
19.69

$$$$
>  <Compound>
OCCNCCO

>  <Measured Attribute>
relative permittivity at zero frequency

>  <Recorded Number>
23.86

$$$$

====

# Assay Summary: relative permittivity at zero frequency (dimensionless); xn = mol fraction of the nth substance listed
# Conditions Used: 308.15 K; 101 kPa; Liquid; dielectric analyzer; x1 = 0.8
Lab note: cut-off is 20. Strictly less in relative permittivity at zero frequency is True. Exactly 20 or more is False.

>  <Compound>
OCCNCCO [diethanolamine] + O

>  <Cat>
False

$$$$
>  <Compound>
CN(CCO)CCO [N-methyldiethanolamine] + O

>  <Cat>
False

$$$$
>  <Compound>
CC(O)CNCC(C)O (stereo not given) [N-(2-hydroxypropyl)-2-hydroxy-1-propanamine] + O

>  <Cat>
True

$$$$
>  <Compound>
CC(C)(N)CO [2-amino-2-methylpropan-1-ol] + O

>  <Cat>
False

$$$$
>  <Compound>
OCCN(CCO)CCO [triethanolamine] + O

>  <Cat>
False

$$$$

====

Below, each entry is listed with its recorded relative permittivity at zero frequency.
# Assay Summary: relative permittivity at zero frequency (dimensionless); xn = mol fraction of the nth substance listed
# Conditions Used: 318.15 K; 101 kPa; Liquid; dielectric analyzer; x1 = 0.2
Numbers after ± are expanded uncertainties.
Measured Attribute: relative permittivity at zero frequency

>  <Compound>
OCCNCCO [diethanolamine] + O

>  <Measured Attribute>
relative permittivity at zero frequency

>  <Result>
48.31 ± 0.97

$$$$
>  <Compound>
CN(CCO)CCO [N-methyldiethanolamine] + O

>  <Measured Attribute>
relative permittivity at zero frequency

>  <Result>
45.14 ± 0.9

$$$$
>  <Compound>
CC(O)CNCC(C)O (stereo not given) [N-(2-hydroxypropyl)-2-hydroxy-1-propanamine] + O

>  <Measured Attribute>
relative permittivity at zero frequency

>  <Result>
38.46 ± 0.77

$$$$
>  <Compound>
CC(C)(N)CO [2-amino-2-methylpropan-1-ol] + O

>  <Measured Attribute>
relative permittivity at zero frequency

>  <Result>
45.46 ± 0.91

$$$$
>  <Compound>
OCCN(CCO)CCO [triethanolamine] + O

>  <Measured Attribute>
relative permittivity at zero frequency

>  <Result>
46.33 ± 0.93

$$$$
